Overview of recorded TGI for various compounds
# Test system: SF-295 CNS
# MEASUREMENT PROTOCOL: NCI tumour cell line growth inhibition, 48 h

Please review the entries below; each comes with its answer.
CCCCCCCCCCCCCCCCCCNc1ccn(C2OC(COP(=O)(O)OCC3OC(n4cc(C)c(=O)[nH]c4=O)CC3O)C(O)C2O)c(=O)n1 (stereo unspecified) | 33.1 µM
NS(=O)(=O)c1nn2c(Br)c(-c3ccccc3)nc2s1 | 22.6 µM

Asked: Give recorded TGI with SF-295 CNS for the following compound: Cn1c(=O)c2c(nc(Nc3cc(=O)[nH]c(=O)[nH]3)n2Cc2ccccc2)n(C)c1=O
Given back: > 100 µM

Asked: Here is the next compound: COc1ccc(C2CC(c3cccc(Nc4ccncc4)c3)=NN2c2cc(Cl)cc(Cl)c2)cc1 (stereo unspecified)
Given back: 3.14 µM

Asked: Here is the next compound: CCOC(=O)C1(Cc2ccc3c(c2)CCC3)Cc2cc3c(cc2C1)CCC3
Given back: 70.8 µM

Asked: Here is the next compound: O=C(c1ccccc1)c1cc(Cl)ccc1OCCCCN1CCN(CCCCOc2ccc(Cl)cc2C(=O)c2ccccc2)CC1
Given back: 4.15 µM

Asked: Here is the next compound: COc1ccc(C2S/C(=C\c3ccccc3O)C(=O)N2NC(=O)Cc2ccccc2)cc1 (stereo unspecified)
Given back: > 100 µM
